cytotoxicity at 10 µM reference
assay.procedure: Toxicity liver stage against HepG2, at 10uM
Format: cell-based
Set-up: test concentration 10 uM, cell line HepG2-A16-CD81EGFP
condition.parameters: human, HepG2-A16-CD81EGFP cells; read-out: INHIBITION
The figure you give is taken to be in %; do not add the unit.

Below, 6 compounds whose answers are already recorded.
>>> measured_result("CCNc1cc2c(nn1)CCN(C(=O)c1ccnc(C)n1)C2")
-5.04
>>> measured_result("CCOc1ccccc1C(CC(=O)Nc1ccccc1)NC(C)=O (stereo not given)")
-2.86
>>> measured_result("CN(CC1CCCN(S(C)(=O)=O)C1)c1cnn(C)c1 (stereo not given)")
2.56
>>> measured_result("Cn1cc(CN2CCC3(CC2)CCN(C(=O)c2cscn2)CC3)cn1")
-0.937
>>> measured_result("CCc1n[nH]c(C2CN(Cc3nnc(C4CC4)n3C)CCO2)n1 (stereo not given)")
5.25
>>> measured_result("CSc1ccc(C(C(=O)O)N2CCOCC2)cc1 (stereo not given)")
0.324

cytotoxicity at 10 µM lookup needed for "O=C(NCCn1cccc1)c1c(O)cc(F)cc1F" , thanks.
-5.22

cytotoxicity at 10 µM lookup needed for COc1cccc2c(=O)n(C3CCCNC3)cnc12 (stereo not given) , thanks.
-42.4

cytotoxicity at 10 µM lookup needed for "Cc1cc(CNc2ccccc2N2CCCCC2)no1" , thanks.
-1.31

cytotoxicity at 10 µM lookup needed for CN(CCC1CCOCC1)C(=O)C1CCC(=O)N(Cc2ccccn2)C1 (stereo not given) , thanks.
-2.06

cytotoxicity at 10 µM lookup needed for "O=C(CCc1ccco1)N1CCc2[nH]nc(COc3ccccc3)c2C1" , thanks.
0.86

cytotoxicity at 10 µM lookup needed for CCCOC1CCCN(C(=O)c2cnc(-c3csc(C)n3)nc2O)C1 (stereo not given) , thanks.
-1.97
